Assay protocol: Mouse Fast PK/BBB: plasma and brain concentration
Assay type: in vivo, Male C57bl/6j mice
Experimental setup: male, C57bl/6j, mouse, plasma; mice, dose 20 mg/kg oral, 1 hr; read-out: Plasma Mean Conc. ± Std. Dev
Property label: concentration at 1 h (µg/mL)

Solved entries:
>>> quantitative_result("O=S(=O)(N1CCC(n2c(C3CC3)nc3ccc(C(c4ccc(Cl)cc4)c4ccc(Cl)cc4)cc32)CC1)C(F)(F)F [Example 335]")
3.94
>>> quantitative_result("O=C(O)c1ccc(S(=O)(=O)N2CCC(n3c(C4CC4)nc4ccc(C(c5ccc(Cl)cc5)c5ccc(Cl)cc5)cc43)CC2)cc1 [Example 276]")
0.227
>>> quantitative_result("CCc1nc2ccc(C(c3ccc(Cl)cc3)c3ccc(Cl)cc3)cc2n1C1CCN(S(=O)(=O)C(F)(F)F)CC1 [Example 328]")
2.64

A = O=C(O)c1cccc(S(=O)(=O)N2CCC(n3c(C4CC4)nc4ccc(C(c5ccc(Cl)cc5)c5ccc(Cl)cc5)cc43)CC2)c1 [Example 242]
B = O=C(O)c1csc(S(=O)(=O)N2CCC(n3c(C4CC4)nc4ccc(C(c5ccc(Cl)cc5)c5ccc(Cl)cc5)cc43)CC2)c1 [Example 221]
C = O=S(=O)(N1CCC(n2c(C3CCC3)nc3ccc(C(c4ccc(Cl)cc4)c4ccc(Cl)cc4)cc32)CC1)C(F)(F)F [Example 318]
### Prompt Sort ascending by concentration at 1 h. The response must list the labels following the requested ordering.
### Response B, A, C
(B: 0.16 µg/mL, A: 0.789 µg/mL, C: 5.88 µg/mL)

----------
Tested on: Human CB1R (Cannabinoid receptor 1) (Homo sapiens, UniProt P21554)
Sequence (P21554 whole entry): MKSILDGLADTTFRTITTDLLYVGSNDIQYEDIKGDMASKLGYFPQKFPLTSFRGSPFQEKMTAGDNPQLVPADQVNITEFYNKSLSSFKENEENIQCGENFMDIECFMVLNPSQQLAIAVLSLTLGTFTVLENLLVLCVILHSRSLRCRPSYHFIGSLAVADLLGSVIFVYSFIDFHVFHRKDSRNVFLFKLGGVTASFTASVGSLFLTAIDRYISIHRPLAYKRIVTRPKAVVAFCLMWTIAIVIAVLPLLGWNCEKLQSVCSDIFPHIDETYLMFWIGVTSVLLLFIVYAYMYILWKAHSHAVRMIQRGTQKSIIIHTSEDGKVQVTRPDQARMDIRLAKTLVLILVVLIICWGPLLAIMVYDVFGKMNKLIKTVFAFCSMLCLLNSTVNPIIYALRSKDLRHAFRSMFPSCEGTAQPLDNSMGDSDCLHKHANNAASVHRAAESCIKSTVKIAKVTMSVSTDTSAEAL
Assay protocol: CB-1 in vitro cAMP (HTRF) assay
Type: cell-based
Experimental setup: HEK cells, cAMP HTRF, 250 nM forskolin; mean where tested more than once; read-out: CB1 HEK_cAMP EC50
Property label: EC50 (µM)

>>> quantitative_result("CCOC(=O)COc1cccc(-n2c(C3CC3)nc3ccc(C(c4ccc(Cl)cc4)c4ccc(Cl)cc4)cc32)c1 [Example 173]")
0.0559
>>> quantitative_result("CC(c1ccc(C(=O)O)o1)N1CCC(n2c(C3CC3)nc3ccc(C(c4ccc(Cl)cc4)c4ccc(Cl)cc4)cc32)CC1 (stereo not shown) [Example 86]")
0.015
>>> quantitative_result("O=C(O)c1ccc(N[C@H]2CC[C@H](n3c(C4CC4)nc4ccc(C(c5ccc(Cl)cc5)c5ccc(Cl)cc5)cc43)CC2)cc1 [Example 30]")
0.0402
>>> quantitative_result("NC(=O)c1cccc(S(=O)(=O)N2CCC(n3c(C4CC4)nc4ccc(C(c5ccc(Cl)cc5)c5ccc(Cl)cc5)cc43)CC2)c1 [Example 260]")
0.0015
>>> quantitative_result("Clc1ccc(CCn2c(C3CC3)nc3ccc(C(c4ccc(Cl)cc4)c4nccs4)cc32)cc1 (stereo not shown) [Example 338]")
0.0597

a = O=C(O)c1cccc(S(=O)(=O)N[C@H]2CC[C@@H](n3c(C4CC4)nc4ccc(C(c5ccc(Cl)cc5)c5ccc(Cl)cc5)cc43)CC2)c1 [Example 43]
b = O=C(O)c1ccc(N2CCC(Cn3c(C4CC4)nc4ccc(C(c5ccc(Cl)cc5)c5ccc(Cl)cc5)cc43)CC2)cc1 [Example 1]
### Prompt Could you tell me which of these two has the smaller EC50 figure? First: a Second: b Indicate which entry you chose by stating its label.
### Response b
(b: 0.0114 µM, a: 0.113 µM)

----------
Assay protocol: Chronic DIO Mouse: plasma and brain concentrations
Type: in vivo
Experimental setup: plasma, oral, DIO mice, 3 mg/kg daily, 2 Hours Post Dose, Day 25, read-out: Plasma Concentration (Std Dev)
Property label: concentration at 2 h (ng/mL)
A number alone suffices; assume ng/mL.

The reported concentration at 2 h of the molecule O=C(O)c1cccc(CN2CCC(n3c(C4CC4)nc4ccc(C(c5ccc(Cl)cc5)c5ccc(Cl)cc5)cc43)CC2)c1 [Example 148] was 1350

----------
# pEC50 listing for each entry below
Tested on: Human CB2R (Cannabinoid receptor 2) (Homo sapiens, UniProt P34972)
Sequence (P34972 whole entry): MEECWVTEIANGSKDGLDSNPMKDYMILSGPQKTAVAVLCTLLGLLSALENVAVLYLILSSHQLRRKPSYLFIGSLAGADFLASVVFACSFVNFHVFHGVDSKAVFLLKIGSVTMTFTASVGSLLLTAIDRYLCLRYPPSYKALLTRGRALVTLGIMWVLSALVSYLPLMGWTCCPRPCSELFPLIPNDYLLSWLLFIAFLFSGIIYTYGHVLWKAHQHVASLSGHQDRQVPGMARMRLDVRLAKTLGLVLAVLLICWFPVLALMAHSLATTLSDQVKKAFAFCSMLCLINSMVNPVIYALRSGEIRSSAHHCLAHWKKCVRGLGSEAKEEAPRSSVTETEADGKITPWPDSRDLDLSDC
Assay protocol: CB-2 in vitro cAMP (HTRF) assay
Experimental setup: HEK cells, cAMP HTRF, 250 nM forskolin; mean where tested more than once; read-out: CB2 HEK_cAMP EC50
pEC50: −log10 of the molar value.

Solved entries:
>>> result("Clc1ccc(C(c2ccc(Cl)cc2)c2ccc3nc(C4CC4)n(CC4CCOCC4)c3c2)cc1")
5.26
>>> result("O=C(O)c1ccccc1S(=O)(=O)N1CCC(n2c(C3CC3)nc3ccc(C(c4ccc(Cl)cc4)c4ccc(Cl)cc4)cc32)CC1")
5.10
>>> result("NC(=O)c1ccc(S(=O)(=O)N2CCC(n3c(C4CC4)nc4ccc(C(c5ccc(Cl)cc5)c5ccc(Cl)cc5)cc43)CC2)cc1C(F)(F)F")
"< 5.00"
>>> result("O=S(=O)(N1CCC(n2c(C3CCC3)nc3ccc(C(c4ccc(Cl)cc4)c4nccs4)cc32)CC1)C(F)(F)F (stereo not drawn)")
"< 5.00"
>>> result("O=C(O)c1ccc(-c2ccc(CCn3c(C4CC4)nc4ccc(C(c5ccc(Cl)cc5)c5ccc(Cl)cc5)cc43)cc2)cc1")
"< 5.00"

Now look at this one.
The reported pEC50 of the compound "Cc1ccc(S(=O)(=O)N2CCC(n3c(C4CC4)nc4ccc(C(c5ccc(Cl)cc5)c5ccc(Cl)cc5)cc43)CC2)cc1C(N)=O" was < 5.00

----------
Tested on: Human CB1R (Cannabinoid receptor 1) (Homo sapiens)
Assay protocol: CB-1 in vitro cAMP (HTRF) assay
Type: cell-based
Experimental setup: HEK cells, cAMP HTRF, 250 nM forskolin; mean where tested more than once; read-out: CB1 HEK_cAMP EC50
Property label: EC50 (nM)

1 = Clc1ccc(C(c2ccc(Cl)cc2)c2ccc3nc(C4CC4)n(C4CCOCC4)c3c2)cc1 [Example 119]
2 = COC(=O)CCNC(=O)c1cccc(S(=O)(=O)N2CCC(n3c(C4CC4)nc4ccc(C(c5ccc(Cl)cc5)c5ccc(Cl)cc5)cc43)CC2)c1 [Example 203]
3 = COC(=O)c1cc(OCCn2c(C3CC3)nc3ccc(C(c4ccc(Cl)cc4)c4ccc(Cl)cc4)cc32)cc(C(F)(F)F)c1 [Example 18]
4 = NC(=O)c1ccc(S(=O)(=O)N2CCC(n3c(C4CC4)nc4ccc(C(CO)(c5ccc(Cl)cc5)c5ccc(Cl)cc5)cc43)CC2)cc1 [Example 227]
5 = NC(=O)c1ccc(S(=O)(=O)N2CCC(n3c(C4CC4)nc4ccc(C(CO)(c5ccc(Cl)cc5)c5ccc(Cl)cc5)cc43)CC2)cc1Cl [Example 212]
### Prompt Order by EC50, ascending. The response must list the labels following the requested ordering.
### Response 2, 3, 1, 4, 5
(2: 32.4 nM, 3: 53.3 nM, 1: 94.9 nM, 4: 2040 nM, 5: 3740 nM)

P = NC(=O)COc1cccc(-n2c(C3CC3)nc3ccc(C(c4ccc(Cl)cc4)c4ccc(Cl)cc4)cc32)c1 [Example 172]
Q = O=C(O)c1cccc(OCCN2CCC(n3c(C4CC4)nc4ccc(C(c5ccc(Cl)cc5)c5ccc(Cl)cc5)cc43)CC2)c1 [Example 44]
R = NC(=O)c1cc(S(=O)(=O)N2CCC(n3c(C4CC4)nc4ccc(C(c5ccc(Cl)cc5)c5ccc(Cl)cc5)cc43)CC2)ccc1F [Example 217]
### Prompt Sort ascending by EC50. The response must list the labels following the requested ordering.
### Response R, Q, P

1 = CCOC(=O)N1CCC(n2cnc3ccc(C(c4ccc(Cl)cc4)c4nccs4)cc32)CC1 (stereo not drawn) [Example 448]
2 = COc1ccc(-n2c(C3CC3)nc3ccc(C(c4ccc(Cl)cc4)c4ccc(Cl)cc4)cc32)cc1 [Example 179]
### Prompt # argmax over EC50 for candidates 1 and 2 Indicate which entry you chose by stating its label.
### Response 1

----------
Tested on: UniProtKB P21554
Assay protocol: CB-1 in vitro cAMP (HTRF) assay
Assay type: cell-based
Experimental setup: HEK cells, cAMP HTRF, 250 nM forskolin; mean where tested more than once; read-out: CB1 HEK_cAMP EC50
pEC50: −log10 of the molar value.
Property label: pEC50

a = NC(=O)c1csc(S(=O)(=O)N2CCC(n3c(C4CC4)nc4ccc(C(c5ccc(Cl)cc5)c5ccc(Cl)cc5)cc43)CC2)c1
b = Oc1cccc(N[C@H]2CC[C@H](n3c(C4CC4)nc4ccc(C(c5ccc(Cl)cc5)c5ccc(Cl)cc5)cc43)CC2)c1
c = Clc1ccc(C(c2ccc3nc(C4CC4)n(-c4cccc(Cl)c4)c3c2)c2nccs2)cc1 (centres unmarked)
### Prompt Order by pEC50, ascending. The response must list the labels following the requested ordering.
### Response c, b, a
(c: 7.19, b: 7.67, a: 8.21)
